system: antibodies in sera from SARS patients (sera 1a, 1b, 2, 6, 37, 62, London, SARS-yellow, SARS-green); type: binding, human
recordedEndpoint: Binding of serum SARS-green to looped/cyclic peptides of protein X4 of SARS-CoV Urbani

// known answers, use as guide
>  <residueSequence>
THFAFACADGTRHTY

>  <observedValue>
0.4

$$$$
>  <residueSequence>
IVFTSCELYHYQECV

>  <observedValue>
0.8

$$$$

Working through the 2 sequences below one at a time, give Binding of serum SARS-green to looped/cyclic peptides of protein X4 of SARS-CoV Urbani for each.
1. LFLIVAALVFLILCF
2. TSTHFAFACADGTRH

A)
[0.4, 0.6]

Working through the 7 sequences below one at a time, give Binding of serum SARS-green to looped/cyclic peptides of protein X4 of SARS-CoV Urbani for each.
1. QQELYSPLFLIVAAL
2. SCELYHYQECVRGTT
3. TYQLRARSVSPKLFI
4. FALTCTSTHFAFACA
5. LKEPCPSGTYEGNSP
6. MKIILFLTLIVFTSC
7. LVFLILCFTIKRKTE

A)
1. 0.5
2. 0.2
3. 0.2
4. 0.5
5. 0.6
6. 0.3
7. 0.2

Working through the 2 sequences below one at a time, give Binding of serum SARS-green to looped/cyclic peptides of protein X4 of SARS-CoV Urbani for each.
1. EVQQELYSPLFLIVA
2. YQLRARSVSPKLFIR

A)
0.3
0.4
